# experimental-details: TOX21_p53_BLA_p3_viability: Viability Assessment in the Tox21 HCT-116 p53 Agonism Beta-lactamase Assay, Phase 3 (AID 2283593);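 further: cells exposed to compound for 16 h before reading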
Records with an inconclusive call do not appear. Active and inactive are the calls of the source. How the source made its calls: active means hit-call score of the fitted dose curve at least 0.9, where 1 is the maximum; inconclusive means response in the unintended direction; inactive means score below 0.9.
Pick from active, inactive when you respond.

Returns: the outcome recorded for "Fc1ccc(Oc2ccnc3cc(Cl)cc(Cl)c23)cc1" in this assay.
inactive

Returns: the outcome recorded for "Cc1cc(Cl)ccc1OCC(=O)O" in this assay.
inactive

Returns: the outcome recorded for Cc1c(F)c(F)c(COC(=O)C2C(/C=C(\Cl)C(F)(F)F)C2(C)C)c(F)c1F (centres undefined) in this assay.
inactive

Returns: the outcome recorded for C=CCC1=C(C)C(OC(=O)C2C(C=C(C)C)C2(C)C)CC1=O (centres undefined) in this assay.
active
